Data origin: patent US20210171616A1

measured on: T1, PACAP38 (human, K at residue 38 modified by C-terminal amidation)
T1 peptide: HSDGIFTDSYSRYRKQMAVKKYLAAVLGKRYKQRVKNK
assay method text: cell-based or functional assay
Measured Inhibition (IC50) of PACAP38 (100 pM) induced cAMP in hPAC1 CHO-K1 cells by item
Hi! Could you send only the number? It should be in pM, unit omitted.

Q: Entry Exemplified Antibody A (antibody, human IgG4 S228P, kappa, F234A L235A, V domains shown, IgG4, kappa light chain; also called Exemplified Ab A; Ab A) VH: EVQLLESGGGLVQPGGSLRLSCAASGFTFSSYYMSWVRQAPGKGLEWVSAISLSGGSTYYADSHKGRFTISRDNSKNTLYLQMNSLRAEDTAVYYCVREVGASNHNYYGMDVWGQGTMVTVSS VL: DIQMTQSPSSLSASVGDRVTITCRASQSISRWLAWYQQKPGKAPKLLIHDASQLLEGVPSRFSGSGSGTDFTFTISSLQPEDIATYYCQQFDLLPLTFGGGTKVEIKR : reported Inhibition (IC50) of PACAP38 (100 pM) induced cAMP in hPAC1 CHO-K1 cells = ?
Ans: 554
